Hello, the source for this data is patent US6838468B2, in case you need it.

This section presents molecules with their documented IC50 values.
Molecular target: cloned human δ receptor (Homo sapiens, UniProt P41143)
Sequence (P41143 whole entry): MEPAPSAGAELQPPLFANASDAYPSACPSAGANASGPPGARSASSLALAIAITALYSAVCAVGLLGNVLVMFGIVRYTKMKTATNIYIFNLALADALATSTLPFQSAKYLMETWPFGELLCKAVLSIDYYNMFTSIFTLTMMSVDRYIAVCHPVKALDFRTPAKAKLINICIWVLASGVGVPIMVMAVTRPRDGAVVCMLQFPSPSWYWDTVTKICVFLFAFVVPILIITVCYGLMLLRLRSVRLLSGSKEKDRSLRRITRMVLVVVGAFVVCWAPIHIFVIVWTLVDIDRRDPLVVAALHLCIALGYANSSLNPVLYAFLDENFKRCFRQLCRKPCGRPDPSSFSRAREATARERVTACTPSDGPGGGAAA

Some molecules with recorded IC50:
// query So what IC50 did `CC(C)N(C(=O)c1ccc(C(=C2CCN(Cc3ccco3)CC2)c2cccc3cccnc23)cc1)C(C)C` get with cloned human δ receptor (Homo sapiens, UniProt P41143)?
// result 0.78 to 5 nM

// query Next entry: `CC(C)N(C(=O)c1ccc(C(=C2CCN(Cc3ccccc3)CC2)c2cccc3cccnc23)cc1)C(C)C`
// result 0.78 to 5 nM

Now consider the entry below.
// query So what IC50 did `COc1ccc(CN2CCC(=C(c3ccc(C(=O)N(C(C)C)C(C)C)cc3)c3cccc4cccnc34)CC2)cc1` get with cloned human δ receptor (Homo sapiens, UniProt P41143)?
// result 0.78 to 5 nM
